Source listed as patent US20240262804A1.

Below: a set of entries, each annotated with reported pIC50.
- target of assay: bovine cardiac myosin (Bos taurus (Bovine), UniProt Q9BE39)
- Sequence (Q9BE39 whole entry): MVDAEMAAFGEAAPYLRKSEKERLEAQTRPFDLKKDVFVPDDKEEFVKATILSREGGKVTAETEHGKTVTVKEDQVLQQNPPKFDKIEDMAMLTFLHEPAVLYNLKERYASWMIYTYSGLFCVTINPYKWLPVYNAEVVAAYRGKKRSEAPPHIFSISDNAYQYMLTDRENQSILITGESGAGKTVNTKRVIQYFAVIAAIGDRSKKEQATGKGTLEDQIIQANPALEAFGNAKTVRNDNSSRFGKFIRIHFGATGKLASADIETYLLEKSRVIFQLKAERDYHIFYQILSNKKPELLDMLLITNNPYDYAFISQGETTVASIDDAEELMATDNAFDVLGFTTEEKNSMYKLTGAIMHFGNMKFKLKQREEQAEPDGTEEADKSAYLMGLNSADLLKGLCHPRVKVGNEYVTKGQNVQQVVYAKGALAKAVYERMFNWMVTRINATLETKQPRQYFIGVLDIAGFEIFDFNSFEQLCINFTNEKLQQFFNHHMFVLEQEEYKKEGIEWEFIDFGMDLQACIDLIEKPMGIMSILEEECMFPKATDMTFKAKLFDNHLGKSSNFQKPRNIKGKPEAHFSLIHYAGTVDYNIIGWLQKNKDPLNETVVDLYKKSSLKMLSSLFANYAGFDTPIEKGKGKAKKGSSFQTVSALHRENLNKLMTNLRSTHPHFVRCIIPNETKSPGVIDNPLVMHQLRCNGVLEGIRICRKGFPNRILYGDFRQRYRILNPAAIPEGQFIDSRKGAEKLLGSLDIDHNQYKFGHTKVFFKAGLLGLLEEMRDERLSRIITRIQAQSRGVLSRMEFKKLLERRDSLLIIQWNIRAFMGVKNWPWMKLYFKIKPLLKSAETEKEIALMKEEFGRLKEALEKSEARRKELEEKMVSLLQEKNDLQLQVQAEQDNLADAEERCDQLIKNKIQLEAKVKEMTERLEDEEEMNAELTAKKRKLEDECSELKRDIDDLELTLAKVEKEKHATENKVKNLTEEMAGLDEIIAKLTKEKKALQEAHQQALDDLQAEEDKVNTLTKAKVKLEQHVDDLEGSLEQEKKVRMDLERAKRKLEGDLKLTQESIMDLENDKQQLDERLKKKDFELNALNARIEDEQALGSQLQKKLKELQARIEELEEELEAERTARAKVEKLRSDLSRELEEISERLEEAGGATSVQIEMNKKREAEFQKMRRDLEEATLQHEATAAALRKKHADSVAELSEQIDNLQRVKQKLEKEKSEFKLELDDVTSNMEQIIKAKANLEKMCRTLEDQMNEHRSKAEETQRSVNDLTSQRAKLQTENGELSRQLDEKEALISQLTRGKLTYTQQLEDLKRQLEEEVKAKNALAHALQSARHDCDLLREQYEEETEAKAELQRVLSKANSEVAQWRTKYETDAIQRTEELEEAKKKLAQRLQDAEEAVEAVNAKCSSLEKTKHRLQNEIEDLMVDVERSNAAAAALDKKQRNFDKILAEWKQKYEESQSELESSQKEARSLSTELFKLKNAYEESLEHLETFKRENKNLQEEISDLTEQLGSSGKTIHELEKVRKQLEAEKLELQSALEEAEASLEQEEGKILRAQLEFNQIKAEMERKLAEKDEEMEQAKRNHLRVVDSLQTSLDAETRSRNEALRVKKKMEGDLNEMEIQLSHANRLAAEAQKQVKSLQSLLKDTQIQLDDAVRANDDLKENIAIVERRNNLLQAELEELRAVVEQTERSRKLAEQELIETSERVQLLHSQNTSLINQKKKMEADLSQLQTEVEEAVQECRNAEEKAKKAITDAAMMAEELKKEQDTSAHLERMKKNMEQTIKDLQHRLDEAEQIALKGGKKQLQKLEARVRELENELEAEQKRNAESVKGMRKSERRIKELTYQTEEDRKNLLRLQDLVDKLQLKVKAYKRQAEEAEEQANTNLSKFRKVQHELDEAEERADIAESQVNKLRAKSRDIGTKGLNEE
- Sequence (P85100 whole entry partner): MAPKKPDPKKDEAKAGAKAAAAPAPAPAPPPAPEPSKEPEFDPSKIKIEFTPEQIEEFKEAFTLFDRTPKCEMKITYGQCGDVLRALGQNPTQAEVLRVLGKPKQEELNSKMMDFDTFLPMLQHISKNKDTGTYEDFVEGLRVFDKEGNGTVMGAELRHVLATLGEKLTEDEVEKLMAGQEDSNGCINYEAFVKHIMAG
- Sequence (Q3SZE5 whole entry partner): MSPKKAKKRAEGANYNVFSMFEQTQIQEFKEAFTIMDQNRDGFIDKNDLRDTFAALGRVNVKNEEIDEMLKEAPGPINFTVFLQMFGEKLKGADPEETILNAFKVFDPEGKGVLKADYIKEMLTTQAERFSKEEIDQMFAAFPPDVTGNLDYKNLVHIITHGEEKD
- assay method text: Myosin inhibitory potency: PK/LDH-coupled ATPase assay on bovine skinned cardiac myofibrils
- reported conditions: pCa=6.25, 50 μM ATP, 25° C., read-out: myosin inhibition activity IC50
Keep it numeric: pIC50 is minus log10 of the concentration in mol/L.

Some molecules with recorded pIC50:
{"molecule": "CC(Nc1nc(=O)n(C2CCOCC2)c(=O)[nH]1)c1cccc(F)c1 (stereo not drawn) [Example 122]", "pIC50": 5.46}
{"molecule": "CC(C)n1c(=O)nc(N[C@@H](C)c2cccc([C@@H](C)O)c2)[nH]c1=O [Example 271]", "pIC50": 6.06}

In: Would you mind telling me what pIC50 value was observed for Cc1cccc([C@H](C)Nc2nc(=O)n(C3CCn4nccc4C3)c(=O)[nH]2)c1 (stereo partly drawn) [Example 92] ?
Out: 5.13

* * *

- target of assay: bovine cardiac myosin (Bos taurus (Bovine), UniProt Q9BE39)
- assay method text: Myosin inhibitory potency: PK/LDH-coupled ATPase assay on bovine skinned cardiac myofibrils
- reported conditions: pCa=6.25, 50 μM ATP, 25° C., read-out: myosin inhibition activity IC50
Bucketed by reported IC50, buckets being low group (below 2000 nM), middle group (2000 nM to below 6000 nM), high group (6000 nM or more)

Recorded results for 2 compounds are shown here.
{"compound": "C[C@H](Nc1nc(=O)n(C2CCOCC2)c(=O)[nH]1)c1cccc(C2CCN(C(=O)OC(C)(C)C)CC2)c1 [Example 211]", "classification": "low group"}
{"compound": "Cc1cccc([C@H](C)Nc2nc(=O)n([C@H](C)C(F)(F)F)c(=O)[nH]2)c1 [Example 41]", "classification": "middle group"}

In: Each compound maps to one class by IC50. Which class for O=c1nc(NC2CCc3ccccc32)[nH]c(=O)n1C1CCOCC1 (stereo not drawn) [Example 149] ?
Out: middle group

In: Each compound maps to one class by IC50. Which class for Cc1ccccc1C(C)Nc1nc(=O)n(C2CCNCC2)c(=O)[nH]1 (stereo not drawn) [Example 189] ?
Out: high group

In: Each compound maps to one class by IC50. Which class for CC(C)C(=O)N1CCC(n2c(=O)nc(N[C@@H](C)C3CCCCC3)[nH]c2=O)CC1 [Example 234] ?
Out: high group

In: Each compound maps to one class by IC50. Which class for Cc1cccc([C@H](Nc2nc(=O)n(C3CCOCC3)c(=O)[nH]2)C(F)(F)F)c1 [Example 280] ?
Out: middle group

In: Each compound maps to one class by IC50. Which class for COc1ccccc1[C@H](C)Nc1nc(=O)n(C2CCOCC2)c(=O)[nH]1 [Example 150] ?
Out: high group

* * *

- target of assay: bovine cardiac myosin (Bos taurus (Bovine), UniProt Q9BE39)
- assay method text: Myosin inhibitory potency: PK/LDH-coupled ATPase assay on bovine skinned cardiac myofibrils
- reported conditions: pCa=6.25, 50 μM ATP, 25° C., read-out: myosin inhibition activity IC50
- Experimental: The average rates of ATPase inhibition, and the IC50 values are determined by Victor Nivo multimode plate reader (PerkinElmer, USA). As to the assays background, a biochemical assay couples the ATPase activity of bovine cardiac myosin to an enzymatic coupling system consisting of pyruvate kinase and lactate dehydrogenase (PK/LDH) and monitoring the absorbance decrease of NADH (at 340 nm) as a function of time to measure the inhibitory ability of small molecule agents. […]
pIC50: −log10 of the molar value.
Returns one of met or not met; met when pIC50 is >= 6.

Recorded results for 5 compounds are shown here.
{"compound": "C[C@H](Nc1nc(=O)n(C2CCOCC2)c(=O)[nH]1)c1cccc(C(C)(C)C#N)c1 [Example 276]", "classification": "met"}
{"compound": "CC(Nc1nc(=O)n(C2CCOCC2)c(=O)[nH]1)c1cccc(C(F)(F)F)c1 (centres unmarked) [Example 130]", "classification": "not met"}
{"compound": "CC(=O)N1CCN(c2cccc([C@H](C)Nc3nc(=O)n(C4CCOCC4)c(=O)[nH]3)c2)CC1 [Example 213]", "classification": "not met"}
{"compound": "CO[C@H]1COCC[C@@H]1n1c(=O)nc(N[C@@H](C)c2cccc(C)c2)[nH]c1=O [Example 347]", "classification": "not met"}
{"compound": "Cc1cccc([C@H](C)Nc2nc(=O)n([C@@H](C)C(F)(F)F)c(=O)[nH]2)c1 [Example 40]", "classification": "not met"}

Next up:
In: Could you verify whether the entry Cc1cccc([C@H](CO)Nc2nc(=O)n(C3CCOCC3)c(=O)[nH]2)c1 [Example 317] shows pIC50 of no less than 6?
Out: not met

* * *

- target of assay: UniProt Q9BE39
- assay method text: Myosin inhibitory potency: PK/LDH-coupled ATPase assay on bovine skinned cardiac myofibrils
- reported conditions: pCa=6.25, 50 μM ATP, 25° C., read-out: myosin inhibition activity IC50
- Experimental: The average rates of ATPase inhibition, and the IC50 values are determined by Victor Nivo multimode plate reader (PerkinElmer, USA). As to the assays background, a biochemical assay couples the ATPase activity of bovine cardiac myosin to an enzymatic coupling system consisting of pyruvate kinase and lactate dehydrogenase (PK/LDH) and monitoring the absorbance decrease of NADH (at 340 nm) as a function of time to measure the inhibitory ability of small molecule agents. […]
assay metric: pIC50
Keep it numeric: pIC50 is minus log10 of the concentration in mol/L.

{"compound": "C[C@H](Nc1nc(=O)n(C2CCOCC2)c(=O)[nH]1)c1cccc([C@H](O)C(F)(F)F)c1", "pIC50": 6.07}
{"compound": "Cc1cn(-c2cccc([C@H](C)Nc3nc(=O)n(C4CCOCC4)c(=O)[nH]3)c2)cn1", "pIC50": 5.42}
{"compound": "CC(C)n1c(=O)nc(NC(C2CCCCC2)C2CC2)[nH]c1=O (stereo not shown)", "pIC50": 5.07}

In: Would you mind telling me what pIC50 value was observed for C[C@H](Nc1nc(=O)n(C2CCOCC2)c(=O)[nH]1)c1cccc(-c2cccnc2)c1 ?
Out: 5.69

In: Would you mind telling me what pIC50 value was observed for C[C@H](Nc1nc(=O)n([C@H](C)C(F)(F)F)c(=O)[nH]1)C1CCCCC1 ?
Out: 5.67

In: Would you mind telling me what pIC50 value was observed for CC(C#N)c1cccc([C@H](C)Nc2nc(=O)n(C3CCOCC3)c(=O)[nH]2)c1 (stereo partly shown) ?
Out: 6.62

In: Would you mind telling me what pIC50 value was observed for C[C@H](Nc1nc(=O)n(C2CCOCC2)c(=O)[nH]1)c1c(F)cccc1Cl ?
Out: 5.89

In: Would you mind telling me what pIC50 value was observed for Cc1cccc([C@H](C)Nc2nc(=O)n(C3CCN(CCF)CC3)c(=O)[nH]2)c1 ?
Out: 6.10

In: Would you mind telling me what pIC50 value was observed for CC(C)n1c(=O)nc(N[C@H](c2cccc(C(O)C3CC3)c2)C(F)F)[nH]c1=O (stereo partly shown) ?
Out: 5.96

In: Would you mind telling me what pIC50 value was observed for CC(Nc1nc(=O)n(C2CCOCC2)c(=O)[nH]1)C1CCC(F)(F)CC1 (stereo not shown) ?
Out: 4.89

In: Would you mind telling me what pIC50 value was observed for C[C@H](Nc1nc(=O)n(C2CCOCC2)c(=O)[nH]1)c1ccc(S(C)(=O)=O)cc1 ?
Out: 6.11

* * *

- target of assay: bovine cardiac myosin (Bos taurus (Bovine), UniProt Q9BE39)
- assay method text: Myosin inhibitory potency: PK/LDH-coupled ATPase assay on bovine skinned cardiac myofibrils
- reported conditions: pCa=6.25, 50 μM ATP, 25° C., read-out: myosin inhibition activity IC50
So basically, if IC50 comes in under 2000 nM it's label 1, and if it's 2000 nM or more it's label 0.

Recorded results for 5 compounds are shown here.
{"compound": "C[C@H](Nc1nc(=O)n(C2CCOCC2)c(=O)[nH]1)c1cccc(-c2cn[nH]c2)c1", "classification": "label 0"}
{"compound": "C[C@H](Nc1nc(=O)n(C2CCOCC2)c(=O)[nH]1)c1cccc(C2CCN(CC(F)(F)F)CC2)c1", "classification": "label 0"}
{"compound": "CC(Nc1nc(=O)n(C2CCNCC2)c(=O)[nH]1)c1cccc(F)c1 (centres unmarked)", "classification": "label 0"}
{"compound": "COCCN1CCC(n2c(=O)nc(N[C@@H](C)c3cccc(C)c3)[nH]c2=O)CC1", "classification": "label 1"}
{"compound": "C[C@H](Nc1nc(=O)n(C2CCOCC2)c(=O)[nH]1)c1cccc(-c2ccccc2)c1", "classification": "label 1"}

In: Does this compound meet the criterion IC50 < 2000 nM? C[C@H](Nc1nc(=O)n(C2CCOCC2)c(=O)[nH]1)c1ccc(F)c(F)c1
Out: label 1

In: Does this compound meet the criterion IC50 < 2000 nM? C[C@H](Nc1nc(=O)n(C2CCOCC2)c(=O)[nH]1)c1ccc(F)cc1F
Out: label 1

In: Does this compound meet the criterion IC50 < 2000 nM? COC[C@H](Nc1nc(=O)n(C2CCOCC2)c(=O)[nH]1)c1ccc(F)cc1F
Out: label 1
